Entries and their remaining target (mRNA or protein) (fraction of control)
test_target: RIPK2; further: test concentration or dose not given here
measurement_parameters: ASO
These antisense oligonucleotides have a phosphorothioate backbone; sugars and methylation of C are not fully specified.
measurement_name: remaining target (mRNA or protein) (fraction of control)

[
  {
    "sequence_data": "AGATGGCCTCCCCGTTCATG",
    "test_target": "RIPK2",
    "result_qualifier": "=",
    "recorded_value": 0.51
  },
  {
    "sequence_data": "TTACATGCTTTTATTTTGAA",
    "test_target": "RIPK2",
    "result_qualifier": "=",
    "recorded_value": 0.5
  },
  {
    "sequence_data": "ATGGCCTCCCCGTTCATGGT",
    "test_target": "RIPK2",
    "result_qualifier": "=",
    "recorded_value": 0.51
  },
  {
    "sequence_data": "GGCCTCCCCGTTCATGGTCC",
    "test_target": "RIPK2",
    "result_qualifier": "=",
    "recorded_value": 0.45
  },
  {
    "sequence_data": "TGCATAGCTATATATATCGT",
    "test_target": "RIPK2",
    "result_qualifier": "=",
    "recorded_value": 0.77
  },
  {
    "sequence_data": "CCACAAGTATTTCCGGGTAA",
    "test_target": "RIPK2",
    "result_qualifier": "=",
    "recorded_value": 0.36
  },
  {
    "sequence_data": "TGGTCCCGGGCGCTCAGGCC",
    "test_target": "RIPK2",
    "result_qualifier": "=",
    "recorded_value": 0.23
  },
  {
    "sequence_data": "TTCATGGTCCCGGGCGCTCA",
    "test_target": "RIPK2",
    "result_qualifier": "=",
    "recorded_value": 0.53
  },
  {
    "sequence_data": "AAAACAGTCACTTACATGCT",
    "test_target": "RIPK2",
    "result_qualifier": "=",
    "recorded_value": 0.52
  },
  {
    "sequence_data": "GATAATTGTCCCTCCTTCTG",
    "test_target": "RIPK2",
    "result_qualifier": "≥",
    "recorded_value": 1
  },
  {
    "sequence_data": "TGAAATTCATTGTCCAATAA",
    "test_target": "RIPK2",
    "result_qualifier": "=",
    "recorded_value": 0.99
  },
  {
    "sequence_data": "GAGCAGCGGAGTGTGGATGT",
    "test_target": "RIPK2",
    "result_qualifier": "=",
    "recorded_value": 0.3
  },
  {
    "sequence_data": "ATTTTCATGGAGCTGAGAGG",
    "test_target": "RIPK2",
    "result_qualifier": "=",
    "recorded_value": 0.68
  },
  {
    "sequence_data": "TTATCTGCAAAGGATTGGTG",
    "test_target": "RIPK2",
    "result_qualifier": "=",
    "recorded_value": 0.45
  },
  {
    "sequence_data": "AAGCCTGGGATTTTAGGGCA",
    "test_target": "RIPK2",
    "result_qualifier": "=",
    "recorded_value": 0.15
  },
  {
    "sequence_data": "ATAAAGCTTTAATACTCACG",
    "test_target": "RIPK2",
    "result_qualifier": "=",
    "recorded_value": 0.93
  },
  {
    "sequence_data": "GTGCTCGGTGAGGTATATCA",
    "test_target": "RIPK2",
    "result_qualifier": "=",
    "recorded_value": 0.18
  },
  {
    "sequence_data": "ATCAGGCTGTTGACTTTATT",
    "test_target": "RIPK2",
    "result_qualifier": "=",
    "recorded_value": 0.53
  },
  {
    "sequence_data": "CCAGGCTGCAGACGTTCTGA",
    "test_target": "RIPK2",
    "result_qualifier": "=",
    "recorded_value": 0.3
  },
  {
    "sequence_data": "AGGCTTCTGTCATTTGGTTC",
    "test_target": "RIPK2",
    "result_qualifier": "=",
    "recorded_value": 0.3
  },
  {
    "sequence_data": "GCAGATGGCCTCCCCGTTCA",
    "test_target": "RIPK2",
    "result_qualifier": "=",
    "recorded_value": 0.84
  },
  {
    "sequence_data": "GATACGCCCCTGCACGAGCG",
    "test_target": "RIPK2",
    "result_qualifier": "=",
    "recorded_value": 0.65
  },
  {
    "sequence_data": "GCAGGTCGGCGAGTTTGTGG",
    "test_target": "RIPK2",
    "result_qualifier": "≥",
    "recorded_value": 1
  },
  {
    "sequence_data": "TCCCCGTTCATGGTCCCGGG",
    "test_target": "RIPK2",
    "result_qualifier": "=",
    "recorded_value": 0.24
  },
  {
    "sequence_data": "GTCAGTAGTGTCTAGTAATT",
    "test_target": "RIPK2",
    "result_qualifier": "=",
    "recorded_value": 0.52
  },
  {
    "sequence_data": "CCCGTTCATGGTCCCGGGCG",
    "test_target": "RIPK2",
    "result_qualifier": "=",
    "recorded_value": 0.6
  },
  {
    "sequence_data": "CGTTCATGGTCCCGGGCGCT",
    "test_target": "RIPK2",
    "result_qualifier": "=",
    "recorded_value": 0.76
  },
  {
    "sequence_data": "ATGCAGCCCTTTGAGAACCA",
    "test_target": "RIPK2",
    "result_qualifier": "=",
    "recorded_value": 0.18
  },
  {
    "sequence_data": "CACCAAGGGCAATTTCATGC",
    "test_target": "RIPK2",
    "result_qualifier": "=",
    "recorded_value": 0.15
  },
  {
    "sequence_data": "TCTTTCATGATCAAGTCCCT",
    "test_target": "RIPK2",
    "result_qualifier": "=",
    "recorded_value": 0.42
  },
  {
    "sequence_data": "ATGTAACTAAATCTAGCTTT",
    "test_target": "RIPK2",
    "result_qualifier": "=",
    "recorded_value": 0.72
  }
]
